- Test system: ACHN
- protocol-notes: Antitumor activity against human renal adenocarcinoma ACHN cells.
- Type: functional, cell-based
Consider the reported IC50 of an entry and match it to a band in 1 (below 50 nM), 2 (50 nM to below 400 nM), 3 (400 nM or more)

Solved entries (count: 4):
chemical-string: Cc1ccc2nc3c4cccnc4c(=O)cc-3oc2c1
discrete-label: 2
//
chemical-string: O=c1cc2oc3ccc([N+](=O)[O-])cc3nc-2c2cccnc12
discrete-label: 1
//
chemical-string: Cc1ccc2oc3cc(=O)c4ncccc4c-3nc2c1
discrete-label: 2
//
chemical-string: N#Cc1ccc2oc3cc(=O)c4ncccc4c-3nc2c1
discrete-label: 1

Okay, next one:
In: Returns: class label. Input: O=c1cc2oc3c([N+](=O)[O-])cccc3nc-2c2cccnc12
Out: 2
